# credit: the RNAGym collection of RNA variant scans (doi:10.7554/elife.80360)

Provide the reported self-cleavage of each item.
B1: CPEB3 Ribozyme (parent)
chain: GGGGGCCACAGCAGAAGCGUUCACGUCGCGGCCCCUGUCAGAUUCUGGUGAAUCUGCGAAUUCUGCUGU

Variants of: B1
Experiment: self-cleavage, relative activity (ratio to wild type); higher = more cleavage; co-transcriptional

Query :: Quick check: self-cleavage of A13G U69C ?
Result :: 1.04

Query :: Please answer likewise for C7U G14U
Result :: 0.503

Query :: And what about the variant C6A U46C ?
Result :: 0.657

Query :: Same again, this time with G14A U62C
Result :: 0.338

Query :: Subsequent entry: G2A G3C
Result :: 0.176

Query :: What do you have for C6A G19C ?
Result :: 0.107

Query :: Follow-up entry: C54G U69A
Result :: 1.01

Query :: Now the variant G1A G47A
Result :: 0.104

Query :: Also A16U G58C ?
Result :: 0.756

Query :: Then what about the variant C12U G37U ?
Result :: 0.222

Query :: // next record C6A A51U
Result :: 0.545

Query :: Then what about the variant G41A C54G ?
Result :: 0.861

Query :: Could you do the same for G14C A15C , please?
Result :: 0.166
